Target: LC3B (Homo sapiens, UniProt Q9GZQ8)
Experiment: Fluorescence Polarization (FP) Assay: displacement of FITC-labeled peptide from GST-LC3B
Assay type: binding
Conditions: Fluorescence Polarization assay; GST-LC3B 180 nM, FITC-labeled peptide 18 nM, 25° C.; read-out: IC50
Structures can show the parent of a compound that is named as a salt.
IC50 values by entry
reported property: IC50

INSERT INTO measurements (compound, observed_value) VALUES
  ('NC(=O)C1C(=O)C(=CNCCN2CCN(CCO)CC2)C(=O)CC1c1ccccc1 (stereo not shown) [Compound 333]', '15 to 100 µM'),
  ('O=C1CC(c2cccc3[nH]ccc23)CC(=O)C1=CO (stereo not shown) [Compound 461, potassium salt]', '< 3 µM'),
  ('O=C1CC(C2CCNCC2)CC(=O)C1=CNCCN1CCN(CCO)CC1 (stereo not shown) [Compound 70, HCl salt]', '100 to 1000 µM'),
  ('CN(C)C(=O)N1CCN(CCNC=C2C(=O)CC(c3ccc(Cl)cc3)CC2=O)CC1 (stereo not shown) [Compound 248]', '< 3 µM');

These data points were gathered from patent US11319303B2.
